B1: VDR (parent)
chain: VTLELSQLSMLPHLADLVSYSIQK

Variants of: B1
Experiment: protein stability index of a GFP-peptide fusion (GPS, HEK-293T) (PSI 1-6); higher = more stable;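 note: lentivirally expressed fusions sorted by FACS into six bins by GFP to DsRed ratio, PSI derived from sequencing read proportions per bin multiplied by bin number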
Conditions: c terminus: a fixed tail appended

Variant Spec: A15Q
protein stability index: 2.83

Variant Spec: E4I
protein stability index: 3.27

Variant Spec: Q7M
protein stability index: 3.99

Variant Spec: V1Y
protein stability index: 2.2

Variant Spec: H13K
protein stability index: 2.92

Variant Spec: Y20S
protein stability index: 2.92

Variant Spec: S6G
protein stability index: 3.13

Variant Spec: A15P
protein stability index: 2.1

Variant Spec: L11Y
protein stability index: 3.22

Variant Spec: H13N
protein stability index: 2.13

Variant Spec: D16R
protein stability index: 3.75

Variant Spec: I22P
protein stability index: 1.55
